PROTOCOL DESCRIPTION: yeast display, Sf9 membrane polyspecificity reagent, FACS + sequencing; frameworks hold sequencing errors
ENDPOINT LABEL: polyreactivity (PSR sort gate)

QVQLVESGGGLVQAGGSLRLSCAASGSTFGDYAMGWYRQAPGKERELVAAISRSAGSTYYADSVKGRFTISRDNAKNTVYLQMNSLKPEDTAVYYCAAEYQYHWAYIYYYWGQGTQVTVSS high polyreactivity
QVQHVESGGGLVQAGGSLRLSCAASGRIFSRYAMGWYRQAPGKERELVAAITSGGSTYYADSVKGRFTISRDNAKNTVYLQMNSLKPEDTAVSYCATRYRFGSYHSIYDYWGQGTQVTVSS high polyreactivity
QVQLVESGGGLDQAGGSLRLSCAASGGTFYYYAMGWYRQPPGKERELVAAITKNGGSTYYADSVKGRFTNSRDNAKNTVYLQMNRLKPEDTAVYSCAKATVAYGWWRYNYWGQGTQVTVSS high polyreactivity

---

PROTOCOL DESCRIPTION: yeast display, Sf9 membrane polyspecificity reagent, FACS + sequencing; frameworks hold sequencing errors
ENDPOINT LABEL: polyreactivity (PSR sort gate)

Take a look at these entries with their results.
QVQLVESGGGLVQAGGSLRLSCAASGSIFYYYAMGWYRQAPGKERELVAAITRSVSRTYYADSVKGRFTISRDNAKNTVYLQMNYLKPEVTAVYYCNVVGSSETSTVYYCGQGTQVTVSS high polyreactivity
QVQLVESGGGLVQAGGSLRLSCAASGIIFRYNAMGWYRPAPGKERELVAAITSGGITKYADSVKGRFTISRDNAKNTVYLQMNSLKPEDTAVYYCNAEYGFFRAGSRGEYWGQGTQVTVSS low polyreactivity
QVQLVESGGGLVQAGGSLRLSCAASGRIFGPYTMGWYRQAPGKERELVAAISSTGGSTYYADSVKGRFTISRDNAKNTVYLQRNSLKPEDTAVYYCEYDYWGQGTQVTVSS low polyreactivity
QVQLVESGGGLVQAGGSLRLSCASSGGTFSTYAMGWYRQAPGKERELVAAISSTGGSTYYADSVKGRFTISGDNAKNTVYLQMNSLKPEDTAVYYCAAYYSRGWLLYWDEMYFWGQGTQVTVSS high polyreactivity

polyreactivity (PSR sort gate) lookup needed for QVQLVESGGGLVQAGGSLRLSCAASGRIYLYAMGWYRQTPGKERELVAAISYSGGSTYYADSVKGRFTISRDYAKNTVYLQMNCLKPEDTAVYYWASEAGSYWGKGTQVTVSS , thanks.
high polyreactivity

---

PROTOCOL DESCRIPTION: yeast display, Sf9 membrane polyspecificity reagent, FACS + sequencing; frameworks hold sequencing errors
ENDPOINT LABEL: polyreactivity (PSR sort gate)

Take a look at these entries with their results.
QVQLVESGGGLVQAGVSLRLSCAASGSTFVSNAMGWYRQAPGKERELVAAISWSGVRTYYADSVKGRITISRDNAKNTVYLQMNSLKPEDTAVYYCSKRIYGSRSSRFNYWGQGTQLTVSS high polyreactivity
QVQLVESGGGLVQAGGSLRLSCAASGSTFYINAMGWYRQAPGKERELVAAISWSGGSTYYADSVKGRFTISRDNAKNTVYLQMNSMKPEDTAVYYCAADWYLGWSLDYDYWGQGTQVTVSS low polyreactivity
QVQLVESGGGLVQAGGSLRLSCAASGSIFHGYAMGWYRHAPGKERELVAAITWSGGRTYYADSVKGRFTISRDNAKNNVYLQMNSLKPEDTAVYYCAAVALTRRYDYWGQGTQVTVSS high polyreactivity
QVQLVESGGGLVQAGGSLRLSCAASGFTIGSNAMGWYRPAPGKEWELVAAISYTCSTYYAESVKGRFTISRDNAKNTVYLQKNSLKPEDTAVYYGNAESDTPSYDDWGQGTQVTVSS low polyreactivity
QVQLVESGGGLVQAGGSLRLSCAASGSIFAVNAMGWYRQAPGKERELVAAIDWSDGITYYADSVKGRFTISRDNAKNTVYLQMNSLKPEDTAVYYCAADATAYGWYVEQFSFYDNDYWGQGTQVTVSS high polyreactivity
QVQLVESGGGLVQAGGSLRLSCAASGRISLGNAMGWYRQAPGKERELVAVITRGGRTSYADSVKGRFTISRDNAKNTVYLQMNSLKPEDTAVYYCAAESPVYHLVTYDYWGQGTQVTVSS high polyreactivity
QVQLVESGGGLVQAGGSLRLSCAASGPIFGFNAMGWYRQAPGKERELVARISSVGSTNYADSVKGRFTISRDNAKNTVYLQMNSLKPEDTAVYYCAAKRYYTQSSYYLALYDYWGQGTQVTVSS low polyreactivity
QVQLVESGGGLVQAGGSLRLSCAASGITFNTYAMGWYRQAPGKERELVAVITWSDGGTYYADSVKGRFTISRDNAKNTVYLQMNSLKPEDTAVYYCAKVLGGLRHGEVLDEYDYWGQGTQVTVSS low polyreactivity
QVQLVESGGGVVQAGGSLRLSCAASGRIFDIYDMGWYRQAPGKERELVAAITSGRNTYYADSVKGRFTISRDNAKNTVYLQMNSLKPEDTAVSYCAAYSYPPLLWSYDYWGQGTQVTVSS low polyreactivity
QVQLLESGGGLVPSRGSLRLSCAASGFTFAHYAMGWYRQAPGKERELVAAISGSGSSTYYADSVKGRFTISRDNAKNNVYLQMNSLKPEDTADYYCNVRWYFLYDYWGQGTQVTVSS low polyreactivity

Now, please, on to the next sequence.
polyreactivity (PSR sort gate) lookup needed for QVQLVESGGGLVQAGGSLRLSCAASGRTFKVYAMGWYRQAPWKERDLVAAISFSGGSTYYADSVKGRFTISRDNAKNTDYLQMNSLKPEDTAVYYCAAKRYGEYRARGYYYWGQVTQVTVSS , thanks.
high polyreactivity
